B1: library; numbered along this chain (parent)
chain: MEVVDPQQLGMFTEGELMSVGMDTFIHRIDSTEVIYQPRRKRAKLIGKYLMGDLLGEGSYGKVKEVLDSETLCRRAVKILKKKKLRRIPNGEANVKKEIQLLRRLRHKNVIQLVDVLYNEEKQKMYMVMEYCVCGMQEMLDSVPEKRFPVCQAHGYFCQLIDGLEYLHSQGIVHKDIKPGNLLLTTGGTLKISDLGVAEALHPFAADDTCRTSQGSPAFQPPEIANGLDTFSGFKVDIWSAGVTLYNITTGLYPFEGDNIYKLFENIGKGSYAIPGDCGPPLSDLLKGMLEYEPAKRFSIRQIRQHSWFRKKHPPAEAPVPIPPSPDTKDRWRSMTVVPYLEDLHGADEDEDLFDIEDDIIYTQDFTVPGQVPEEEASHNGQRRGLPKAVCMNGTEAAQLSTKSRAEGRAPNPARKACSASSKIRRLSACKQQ

# Variants of: B1
# test.protocol: STK11 functional score (HeLa growth suppression), rescaled enrichment; synonymous median = 1, nonsense median = 0 (normalised score)
# condition.context: with HeLa; variant type: missense
Mark y only when STK11 functional score stays strictly below 1. Values equal to the cut-off are n.

# check: STK11 functional score < 1 for L80A n

# check: STK11 functional score < 1 for R405T n

# check: STK11 functional score < 1 for G270C n

# check: STK11 functional score < 1 for P387S n

# check: STK11 functional score < 1 for L184P y

# check: STK11 functional score < 1 for G408S n

# check: STK11 functional score < 1 for R39S n

# check: STK11 functional score < 1 for F354E n

# check: STK11 functional score < 1 for E407A n

# check: STK11 functional score < 1 for T249P y

# check: STK11 functional score < 1 for T32R n

# check: STK11 functional score < 1 for E349M n

// provenance: the supplement of paper PMC12338614
